Measured values drawn from patent US20240425491A1 for this set.

# subject.of.test: human recombinant GABAAR containing α5β3γ2 subunits (benzodiazepine site) (Homo sapiens, UniProt P18507+P31644)
# Construct: expressed in transfected cells; host or cells: mouse L(tk−) cells, dexamethasone-inducible vector pMSGneo
# Sequence (P31644 32-462): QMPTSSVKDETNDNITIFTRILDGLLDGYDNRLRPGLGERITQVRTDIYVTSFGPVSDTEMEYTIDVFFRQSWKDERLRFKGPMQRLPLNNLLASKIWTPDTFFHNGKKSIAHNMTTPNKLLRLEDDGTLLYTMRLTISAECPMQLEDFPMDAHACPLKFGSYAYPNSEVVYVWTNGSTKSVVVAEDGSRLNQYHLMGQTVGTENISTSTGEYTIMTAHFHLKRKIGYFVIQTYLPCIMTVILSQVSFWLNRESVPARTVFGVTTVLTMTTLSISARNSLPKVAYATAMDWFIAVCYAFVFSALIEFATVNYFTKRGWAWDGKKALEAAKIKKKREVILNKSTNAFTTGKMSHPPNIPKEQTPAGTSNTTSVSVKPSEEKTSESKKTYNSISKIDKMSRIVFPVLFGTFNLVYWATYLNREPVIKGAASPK
# Sequence (P28472 26-473 partner): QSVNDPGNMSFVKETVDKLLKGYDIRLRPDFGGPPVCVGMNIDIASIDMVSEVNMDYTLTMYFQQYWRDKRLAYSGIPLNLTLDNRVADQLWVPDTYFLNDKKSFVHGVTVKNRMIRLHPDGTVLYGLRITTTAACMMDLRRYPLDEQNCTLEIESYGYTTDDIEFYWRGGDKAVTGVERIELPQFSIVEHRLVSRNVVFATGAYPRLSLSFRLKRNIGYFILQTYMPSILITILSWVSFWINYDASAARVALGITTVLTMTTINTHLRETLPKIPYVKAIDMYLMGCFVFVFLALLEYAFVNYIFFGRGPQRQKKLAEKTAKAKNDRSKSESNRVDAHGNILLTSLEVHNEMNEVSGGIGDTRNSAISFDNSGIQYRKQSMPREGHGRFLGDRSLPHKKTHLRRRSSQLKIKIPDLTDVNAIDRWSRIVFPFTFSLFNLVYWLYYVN
# Sequence (P18507 40-475): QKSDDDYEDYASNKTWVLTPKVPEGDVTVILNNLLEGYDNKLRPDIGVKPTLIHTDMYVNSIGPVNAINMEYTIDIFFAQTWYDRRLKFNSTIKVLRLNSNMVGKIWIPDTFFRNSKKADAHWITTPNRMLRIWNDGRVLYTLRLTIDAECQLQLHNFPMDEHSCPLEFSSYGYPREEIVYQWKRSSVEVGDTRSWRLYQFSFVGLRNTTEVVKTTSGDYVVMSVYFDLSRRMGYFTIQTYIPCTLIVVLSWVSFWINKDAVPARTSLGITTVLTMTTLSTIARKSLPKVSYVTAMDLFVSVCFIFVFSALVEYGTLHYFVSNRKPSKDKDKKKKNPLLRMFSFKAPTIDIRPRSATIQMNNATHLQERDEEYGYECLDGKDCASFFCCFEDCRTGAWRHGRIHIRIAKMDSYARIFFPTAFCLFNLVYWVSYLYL
# assay.method.text: In vitro radioligand binding assay (α5-GABAAR Ki)
# particulars: inhibition of [3H]Ro15-1788 binding, membranes of L(tk−) cells expressing human α5β3γ2; read-out: α5-GABAAR Ki
Where a name gives a salt, the structure may show the parent alone.
measurement.type: log10 Ki (log10 of the value in nM)
Plainly stated, the numbers are log10 of Ki given in nM.

Data request, read-out log10 Ki, for "COc1nc(-c2cncn2C)ccc1NC(=O)c1c(-c2ccccc2)noc1C" 0.60

Subsequent entry: "COc1nc(-c2nccnc2N)ccc1NC(=O)c1c(-c2ccccc2)noc1C" 0.87

Also, "COc1nc(-c2cnc(OCC(F)(F)F)nc2)ccc1NC(=O)c1c(-c2ccccc2)noc1C" please. 1.02

Record: "COc1nc(-c2cnccc2N)ccc1NC(=O)c1c(-c2ccccc2)noc1C" 0.00

Thanks! And "COc1nc(-c2cnc3c(c2)CC(=O)N3)ccc1NC(=O)c1c(-c2ccccc2)noc1C" ? 0.80

Request: "COc1nc(-c2cnc(C3CC3)nc2)ccc1NC(=O)c1c(-c2ccccc2)noc1C" 1.03

Then "COc1nc(-c2cnc(N3CCC(O)CC3)nc2)ccc1NC(=O)c1c(-c2ccccc2)noc1C" ? 0.23

Thanks! And COc1nc(-c2cnc(CN)nc2)ccc1NC(=O)c1c(-c2ccc(F)cc2)noc1C.Cl [Example 185, hydrochloride] ? -0.30

"COc1nc(-c2cncc(N)c2)ccc1NC(=O)c1c(-c2ccccc2)noc1C" , same question. 0.46

Also "Cc1onc(-c2ccccc2)c1C(=O)Nc1ccc(-n2ccnc2)nc1OC(C)C" , if possible. 0.23

Param item: COc1nc(-c2cnc(CN)nc2)ccc1NC(=O)c1c(-c2ccc(F)cc2)nnn1C.Cl [Example 184, hydrochloride] 0.18

Same question for "COc1nc(-n2ccnc2)ncc1NC(=O)c1c(-c2ccccc2)noc1C" please. 1.52

Please give the result for "COc1nc(-c2ccc(CCl)cc2)ccc1NC(=O)c1c(-c2ccccc2)noc1C" too. 2.34

Repeat for the following compound: "COc1nc(-c2ccncn2)ccc1NC(=O)c1c(-c2ccccc2)noc1C" 1.69

Same lookup for COc1nc(-c2cnc(CN)nc2)ccc1NC(=O)c1c(-c2ccc(F)cc2)noc1NCCCCl [Example 211, hydrochloride] , please. 0.11

Would you mind doing COc1nc(-c2cnc(N)cn2)ccc1NC(=O)c1c(-c2ccccc2)noc1C.Cl [Example 55, hydrochloride] as well? 0.53

Again, but for "COc1nc(-c2cccnn2)ccc1NC(=O)c1c(-c2ccccc2)noc1C" 1.34
